system: Streptococcus dysgalactiae; assay: Antibacterial activity against efflux, erythromycin-resistant Streptococcus dysgalactiae A 1 by broth microdilution method; assay type: functional
propertyName: MIC (µg/mL)
Number only, in µg/mL; omit the unit.

CC[C@H]1OC(=O)[C@H](C)[C@@H](O[C@H]2C[C@@](C)(OC)[C@@H](O)[C@H](C)O2)[C@H](C)[C@@H](O[C@@H]2O[C@H](C)C[C@H](N(C)C)[C@H]2O)[C@](C)(OC)C[C@@H](C)C(=O)[C@H](C)[C@@H](O)[C@]1(C)O [CLARITHROMYCIN] | 8

Could you now look at the following compound, please?
Enquiry: Param item = CC[C@H]1OC(=O)[C@H](C)[C@@H](OCCCc2cncnc2)[C@H](C)[C@@H](O[C@@H]2O[C@H](C)C[C@H](N(C)C)[C@H]2O)[C@](C)(OC)C[C@@H](C)/C(=N\O)[C@H](C)[C@@H](O)[C@]1(C)O ; retrieve measured MIC.
Return: 2

###

tested on: Streptococcus pneumoniae; experiment: Antibacterial activity against penicillin-, constitutive MLS-resistant Streptococcus pneumoniae PU 11 by broth microdilution method; format: functional
propertyName: MIC (µg/mL)
Number only, in µg/mL; omit the unit.

CC[C@H]1OC(=O)[C@H](C)[C@@H](OC/C=C/c2ccc(-n3ccnc3)cc2)[C@H](C)[C@@H](O[C@@H]2O[C@H](C)C[C@H](N(C)C)[C@H]2O)[C@](C)(OC)C[C@@H](C)/C(=N\OCc2ccccc2Cl)[C@H](C)[C@H]2OC(=O)O[C@@]21C | 32
CC[C@H]1OC(=O)[C@H](C)[C@@H](O/C=C\Cc2cncnc2)[C@H](C)[C@@H](O[C@@H]2O[C@H](C)C[C@H](N(C)C)[C@H]2O)[C@](C)(OC)C[C@@H](C)/C(=N\OCc2ccccc2)[C@H](C)[C@H]2OC(=O)O[C@@]21C | 32
CC[C@H]1OC(=O)[C@H](C)[C@@H](OC/C=C/c2cncnc2)[C@H](C)[C@@H](O[C@@H]2O[C@H](C)C[C@H](N(C)C)[C@H]2O)[C@](C)(OC)C[C@@H](C)C(=O)[C@H](C)[C@@H](O)[C@]1(C)O | 128
CC[C@H]1OC(=O)[C@H](C)[C@@H](OC/C=C/c2cncnc2)[C@H](C)[C@@H](O[C@@H]2O[C@H](C)C[C@H](N(C)C)[C@H]2O)[C@](C)(OC)C[C@@H](C)/C(=N\OCc2ccccc2Cl)[C@H](C)[C@H]2OC(=O)O[C@@]21C | 32

Enquiry: Param item = CC[C@H]1OC(=O)[C@H](C)[C@@H](OCCCc2cccnc2)[C@H](C)[C@@H](O[C@@H]2O[C@H](C)C[C@H](N(C)C)[C@H]2O)[C@](C)(OC)C[C@@H](C)/C(=N\OCc2ccccc2Cl)[C@H](C)[C@H]2OC(=O)O[C@@]21C ; retrieve measured MIC.
Return: 64

###

// values below are reported MIC
system: Staphylococcus epidermidis; assay: Antibacterial activity against methicillin-susceptible, inducible MLS-resistant Staphylococcus epidermidis E1 by broth microdilution method; format: functional

Example entries begin here.
CC[C@H]1OC(=O)[C@H](C)[C@@H](OCCCc2cccnc2)[C@H](C)[C@@H](O[C@@H]2O[C@H](C)C[C@H](N(C)C)[C@H]2O)[C@](C)(OC)C[C@@H](C)/C(=N\OCc2ccccc2Cl)[C@H](C)[C@H]2OC(=O)O[C@@]21C | > 256 mg/L
CC[C@H]1OC(=O)[C@H](C)[C@@H](OC/C=C/c2cncnc2)[C@H](C)[C@@H](O[C@@H]2O[C@H](C)C[C@H](N(C)C)[C@H]2O)[C@](C)(OC)C[C@@H](C)C(=O)[C@H](C)[C@@H](O)[C@]1(C)O | > 256 mg/L

Enquiry: What is its MIC for Staphylococcus epidermidis? Entry: CC[C@H]1OC(=O)[C@H](C)[C@@H](OCCCc2cncnc2)[C@H](C)[C@@H](O[C@@H]2O[C@H](C)C[C@H](N(C)C)[C@H]2O)[C@](C)(OC)C[C@@H](C)/C(=N\OCc2ccccc2Cl)[C@H](C)[C@H]2OC(=O)O[C@@]21C
Return: > 256 mg/L

Enquiry: Check CC[C@H]1OC(=O)[C@H](C)[C@@H](OCCCc2cncnc2)[C@H](C)[C@@H](O[C@@H]2O[C@H](C)C[C@H](N(C)C)[C@H]2O)[C@](C)(OC)C[C@@H](C)/C(=N\O)[C@H](C)[C@@H](O)[C@]1(C)O too.
Return: 16 mg/L

###

system: Staphylococcus aureus; assay: Antibacterial activity against methicillin-, inducible MLS-resistant Staphylococcus aureus PU 32 by broth microdilution method
propertyName: MIC (µg/mL)
Number only, in µg/mL; omit the unit.

Enquiry: Param item = CC[C@H]1OC(=O)[C@H](C)[C@@H](O[C@H]2C[C@@](C)(OC)[C@@H](O)[C@H](C)O2)[C@H](C)[C@@H](O[C@@H]2O[C@H](C)C[C@H](N(C)C)[C@H]2O)[C@](C)(OC)C[C@@H](C)C(=O)[C@H](C)[C@@H](O)[C@]1(C)O [CLARITHROMYCIN] ; retrieve measured MIC.
Return: 1

###

tested on: Streptococcus dysgalactiae; test: Antibacterial activity against efflux, erythromycin-resistant Streptococcus dysgalactiae A 1 by broth microdilution method; assay type: functional
propertyName: MIC (µg/mL)
Number only, in µg/mL; omit the unit.

CC[C@H]1OC(=O)[C@H](C)[C@@H](O/C=C\Cc2cncnc2)[C@H](C)[C@@H](O[C@@H]2O[C@H](C)C[C@H](N(C)C)[C@H]2O)[C@](C)(OC)C[C@@H](C)C(=O)[C@H](C)[C@@H](O)[C@]1(C)O | 4

Could you now look at the following compound, please?
Enquiry: Param item = CC[C@H]1OC(=O)[C@H](C)[C@@H](OC/C=C/c2cncnc2)[C@H](C)[C@@H](O[C@@H]2O[C@H](C)C[C@H](N(C)C)[C@H]2O)[C@](C)(OC)C[C@@H](C)/C(=N\OCc2c(C)cc(C)cc2C)[C@H](C)[C@H]2OC(=O)O[C@@]21C ; retrieve measured MIC.
Return: 32

###

// values below are reported MIC
system: Staphylococcus aureus; test: Antibacterial activity against methicillin-, inducible MLS-resistant Staphylococcus aureus PU 32 by broth microdilution method
Number only, in µg/mL; omit the unit.

CC[C@H]1OC(=O)[C@H](C)[C@@H](OC/C=C/c2cncnc2)[C@H](C)[C@@H](O[C@@H]2O[C@H](C)C[C@H](N(C)C)[C@H]2O)[C@](C)(OC)C[C@@H](C)/C(=N\OCc2ccccc2)[C@H](C)[C@H]2OC(=O)O[C@@]21C | 32

Enquiry: Param item = CC[C@H]1OC(=O)[C@H](C)[C@@H](OC/C=C/c2cncnc2)[C@H](C)[C@@H](O[C@@H]2O[C@H](C)C[C@H](N(C)C)[C@H]2O)[C@](C)(OC)C[C@@H](C)/C(=N\O)[C@H](C)[C@H]2OC(=O)O[C@@]21C ; retrieve measured MIC.
Return: 8

Enquiry: Check CC[C@H]1OC(=O)[C@H](C)[C@@H](OCCCc2cncnc2)[C@H](C)[C@@H](O[C@@H]2O[C@H](C)C[C@H](N(C)C)[C@H]2O)[C@](C)(OC)C[C@@H](C)/C(=N\OCc2ccccc2Cl)[C@H](C)[C@H]2OC(=O)O[C@@]21C too.
Return: 16

###

tested on: Staphylococcus aureus; test: Antibacterial activity against methicillin-susceptible, inducible MLS-resistant Staphylococcus aureus PU 64 by broth microdilution method; type: functional
// values below are reported MIC

CC[C@H]1OC(=O)[C@H](C)[C@@H](OCC#Cc2cncnc2)[C@H](C)[C@@H](O[C@@H]2O[C@H](C)C[C@H](N(C)C)[C@H]2O)[C@](C)(OC)C[C@@H](C)/C(=N\O)[C@H](C)[C@@H](O)[C@]1(C)O | > 256 µg/mL
CC[C@H]1OC(=O)[C@H](C)[C@@H](OCCCc2cccnc2)[C@H](C)[C@@H](O[C@@H]2O[C@H](C)C[C@H](N(C)C)[C@H]2O)[C@](C)(OC)C[C@@H](C)/C(=N\OCc2ccccc2Cl)[C@H](C)[C@H]2OC(=O)O[C@@]21C | > 256 µg/mL
CC[C@H]1OC(=O)[C@H](C)[C@@H](OC/C=C/c2cncnc2)[C@H](C)[C@@H](O[C@@H]2O[C@H](C)C[C@H](N(C)C)[C@H]2O)[C@](C)(OC)C[C@@H](C)/C(=N\OCc2c(C)cc(C)cc2C)[C@H](C)[C@H]2OC(=O)O[C@@]21C | > 256 µg/mL

Enquiry: What is its MIC for Staphylococcus aureus? Entry: CC[C@H]1OC(=O)[C@H](C)[C@@H](O/C=C\Cc2cncnc2)[C@H](C)[C@@H](O[C@@H]2O[C@H](C)C[C@H](N(C)C)[C@H]2O)[C@](C)(OC)C[C@@H](C)C(=O)[C@H](C)[C@@H](O)[C@]1(C)O
Return: 8 µg/mL

Enquiry: Check CC[C@H]1OC(=O)[C@H](C)[C@@H](OCCCc2cncnc2)[C@H](C)[C@@H](O[C@@H]2O[C@H](C)C[C@H](N(C)C)[C@H]2O)[C@](C)(OC)C[C@@H](C)/C(=N\OCc2ccccc2Cl)[C@H](C)[C@H]2OC(=O)O[C@@]21C too.
Return: > 256 µg/mL

Enquiry: Check CC[C@H]1OC(=O)[C@H](C)[C@@H](O[C@H]2C[C@@](C)(OC)[C@@H](O)[C@H](C)O2)[C@H](C)[C@@H](O[C@@H]2O[C@H](C)C[C@H](N(C)C)[C@H]2O)[C@](C)(OC)C[C@@H](C)C(=O)[C@H](C)[C@@H](O)[C@]1(C)O too.
Return: 2 µg/mL

Enquiry: Check CC[C@H]1OC(=O)[C@H](C)[C@@H](OC/C=C/c2cncnc2)[C@H](C)[C@@H](O[C@@H]2O[C@H](C)C[C@H](N(C)C)[C@H]2O)[C@](C)(OC)C[C@@H](C)/C(=N\O)[C@H](C)[C@H]2OC(=O)O[C@@]21C too.
Return: 4 µg/mL

Enquiry: Check CC[C@H]1OC(=O)[C@H](C)[C@@H](O[C@H]2C[C@@](C)(OC)[C@@H](O)[C@H](C)O2)[C@H](C)[C@@H](O[C@@H]2O[C@H](C)C[C@H](N(C)C)[C@H]2O)[C@](C)(O)C[C@@H](C)CN(C)[C@H](C)[C@@H](O)[C@]1(C)O too.
Return: 8 µg/mL

Attribution: ChEMBL document CHEMBL1944546
